Target: Thyroid hormone receptor beta (Homo sapiens)
Test: qHTS assay for small molecule agonists of thyroid hormone receptor beta signaling (AID 588545)
Conditions: TR-UAS-bla GripTite HEK 293, beta-lactamase ratio, agonist mode, 18 h, percent of T3 response, DMSO as zero; series mostly up to 76.7 µM
Inconclusive results are not listed. Activity calls are given as the source filed them. Calls follow the shape of the full dose curve.
REPORTED ENDPOINT: outcome

> print(dat)
                  chemical.string    result
1                COC(=O)c1ccccc1O  inactive
2  Oc1ccc(/C=C/c2cc(O)cc(O)c2)cc1  inactive
3                           CCCCC  inactive

meta.source: PubChem BioAssay (NCATS)
